meta.source: patent US20210380703A1

# test_system: T1, Goat anti-Human Kappa
# T1 construct: Positive control; also called biotinylated goat anti-human kappa light chain
# assay_notes: ELISA; positive control; also: test concentration or dose not given here
quantity_name: optical density (OD)
Numbers only, in OD.

Here's what some known entries look like.
>  <binder>
374_D09 (antibody, V domains shown, VH/VL only) VH: EVQLLESGGGLVQPGGSLRLSCAASGFTFDSYGMNWVRQAPGKGLEWVANINYNGGYKGYADSVKGRFTISRDNSKNTLYLQMNSLRAEDTAVYYCARGATWHDTHLDYWGQGTLVTVSS VL: DIQMTQSPSSLSASVGDRVTITCRASQSIISYVNWYQQKPGKAPKLLIYAATSLASGVPSRFSGSGSGTDFTLTISSLQPEDFATYYCQQSYDTPLTFGGGTKVEIK

>  <quantity_name>
optical density

>  <units_symbol>
OD

>  <recorded_measurement>
3.1

$$$$
>  <binder>
365_C11 (antibody, V domains shown, VH/VL only) VH: EVQLLESGGGLVQPGGSLRLSCAASGFTFSSYSMNWVRQAPGKGLEWVAGINYNGGYKSYADSVKGRFTISRDNSKNTLYLQMNSLRAEDTAVYYCARSANWHDTHLDYWGQGTLVTVSS VL: DIQMTQSPSSLSASVGDRVTITCRASQSIITYLNWYQQKPGKAPKLVIYAVTSRASGVPSRFSGSGSGTDFTLTISSLQPEDFATYYCQQSYSLPLTFGGGTKVEIK

>  <quantity_name>
optical density

>  <units_symbol>
OD

>  <recorded_measurement>
3.67

$$$$

Exam item: Look up optical density: 369_G05 (antibody, V domains shown, VH/VL only) VH: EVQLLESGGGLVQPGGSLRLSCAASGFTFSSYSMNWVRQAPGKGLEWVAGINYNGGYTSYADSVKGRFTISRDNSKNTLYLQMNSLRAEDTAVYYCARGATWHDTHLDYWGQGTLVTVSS VL: DIQMTQSPSSLSASVGDRVTITCRASQSIVSYLNWYQQKPGKAPKLLIYAATSRHSGVPSRFSGSGSGTDFTLTISSLQPEDFATYYCQQSYDSPLTFGGGTKVEIK
Marked response: 3.31
